So I've got a bunch of compounds here, and I need their IC50 values.
Target sequence: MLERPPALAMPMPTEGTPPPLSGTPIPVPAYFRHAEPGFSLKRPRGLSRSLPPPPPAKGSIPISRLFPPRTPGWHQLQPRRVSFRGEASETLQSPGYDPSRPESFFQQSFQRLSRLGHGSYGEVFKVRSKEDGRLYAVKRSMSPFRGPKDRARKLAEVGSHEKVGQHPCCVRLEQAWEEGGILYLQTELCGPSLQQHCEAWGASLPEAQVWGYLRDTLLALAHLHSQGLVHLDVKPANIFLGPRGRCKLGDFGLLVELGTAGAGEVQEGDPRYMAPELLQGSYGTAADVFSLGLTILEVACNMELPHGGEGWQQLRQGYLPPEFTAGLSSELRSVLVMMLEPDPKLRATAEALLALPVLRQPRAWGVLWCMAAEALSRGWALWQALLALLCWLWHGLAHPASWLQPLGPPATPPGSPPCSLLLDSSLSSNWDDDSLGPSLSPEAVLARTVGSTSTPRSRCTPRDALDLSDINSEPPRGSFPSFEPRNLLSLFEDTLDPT

Look at each compound and report its IC50.
1. Cc1ccc(O)c(C)c1-c1cc(C(N)=O)nc2cnn(C)c12
2. Cc1c(O)cccc1-c1c(N)c(C(N)=O)cn2c(C)nnc12 (single isomer, unassigned) [Compound 53]
3. Cc1c(O)cccc1-c1c(N)c(C(N)=O)nc2c1c(C#N)nn2C (racemic) [Compound 54]

["1000 to 5000 nM", "≥ 5000 nM", "< 50 nM"]

----------
// each record: one item and its IC50 for UniProtKB Q99640

Worked examples, 2 compounds total:
>>> obs_value("Cc1ccc(O)c(C)c1-c1cc(C(N)=O)nc2c1c(Cl)cn2C (single isomer, unassigned) [Compound 32]")
"50 to 500 nM"
>>> obs_value("CCn1cc(C(N)=O)c2c(-c3cccc(O)c3C)c(N)c(C(N)=O)nc21 (atropisomer, axis not shown; (M))")
"< 50 nM"

Field IC50 (entry CCn1cnc2c(-c3c(C)ccc(O)c3C)c(N)c(C(N)=O)nc21 (atropisomer, axis not shown; (P)) ) reads < 50 nM

----------
So I've got a bunch of molecules here, and I need their pIC50 values.
# System Tested: UniProtKB Q99640
# Sequence (Q99640 1-499): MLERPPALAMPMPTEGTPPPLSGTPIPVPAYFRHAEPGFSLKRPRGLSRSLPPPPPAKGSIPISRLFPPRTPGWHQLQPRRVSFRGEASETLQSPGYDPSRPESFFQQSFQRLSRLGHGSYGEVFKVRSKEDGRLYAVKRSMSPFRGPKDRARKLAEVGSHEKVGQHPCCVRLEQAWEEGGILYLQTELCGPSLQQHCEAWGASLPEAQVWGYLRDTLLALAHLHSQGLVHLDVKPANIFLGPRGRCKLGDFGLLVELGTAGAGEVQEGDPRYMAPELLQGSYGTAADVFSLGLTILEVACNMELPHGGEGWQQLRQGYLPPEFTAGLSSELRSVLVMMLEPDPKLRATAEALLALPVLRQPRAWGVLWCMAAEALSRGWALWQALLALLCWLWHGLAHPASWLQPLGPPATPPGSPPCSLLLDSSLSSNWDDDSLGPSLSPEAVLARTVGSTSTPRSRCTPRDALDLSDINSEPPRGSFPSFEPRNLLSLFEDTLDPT
pIC50: −log10 of the molar value.

>>> obs_value("Cc1ccc(O)c(C)c1-c1c(N)c(C(N)=O)cc2c1nnn2C(F)F (atropisomer, axis not shown; (P)) [Compound 98]")
"> 7.30"

Look at each molecule and report its pIC50.
1. Cc1c(O)cccc1-c1c(N)c(C(N)=O)cn2cc(C(F)(F)F)nc12 [Compound 49]
2. CCn1cc(-c2cn[nH]c2)c2c(-c3cccc(O)c3C)c(N)c(C(N)=O)nc21 (atropisomer, axis not shown; (M)) [Compound 91]

1: 6.30 to 7.30; 2: > 7.30

Look at each molecule and report its pIC50.
1. [2H]c1cc(C)c(-c2cc(C(N)=O)nc3c2c(C#N)cn3CC)c(C)c1O (atropisomer, axis not shown; (P)) [Compound 89]
2. Cc1ccc(O)c(C)c1-c1cc(C(N)=O)nc2c1ccn2C [Compound 21]
3. Cc1c(O)cccc1-c1c(N)c(C(N)=O)nc2c1c(C#N)cn2C (single isomer, unassigned) [Compound 5]
4. Cc1c(O)cccc1-c1c(N)c(C(N)=O)cn2ccnc12 [Compound 43]

> 7.30
6.00 to 6.30
> 7.30
6.00 to 6.30
